target: Recombinant Human DLL4 (delta-like protein 4) (human) (UniProt Q9NR61)
protocol_notes: ELISA, DLL4 coated on plate, Fab at 100 nM (2-fold dilution series), absorbance at 450 nm
measured_property: ELISA signal
Answer with a bare number; do not write a unit.

Sure, the documented ELISA signal for Fab VH5-51_IGHD5-18*01>3_IGHJ4*01 G100K/G104T G24T/S28R/G35V Y105N & V3-4_IGLJ1*01 (wildtype) (Fab, V domains shown) VH: EVQLVQSGAEVKKPGESLKISCKTSGYRFTSYWIVWVRQMPGKGLEWMGIIYPGDSDTRYSPSFQGQVTISADKSISTAYLQWSSLKASDTAMYYCARRKYSYTNDYFDYWGQGTLVTVSS VL: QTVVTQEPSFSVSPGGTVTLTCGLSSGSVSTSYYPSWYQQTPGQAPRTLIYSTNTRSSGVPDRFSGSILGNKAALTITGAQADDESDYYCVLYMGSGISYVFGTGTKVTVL is 0.25
